target: Hfq R16A (rim) (Escherichia coli, UniProt P0A6X3 1-102, R16A); assay: filter binding
pKd: −log10 of the molar value.
Observation type: pKd

Binder	Observation type	Value
AgvB-U0 (structured_RNA) RNA: GGCGAUAACACAACAAUAUCAGUAUCUCAUGCUAUUGCCCGAACCCAUUCGGGCA	pKd	8.41

Origin of the recorded values: paper doi:10.1101/2021.04.25.441314
